Value source: patent US20120157453A1

system: basal ERK1/2 phosphorylation in Malme-3M cells; assay: Cellular ERK 1/2 phosphorylation assay; assay type: cell-based; conditions: Homo sapiens, 1 h, pERK normalized to total ERK
measured-property: IC50 (µM)
One number for each entry, in µM.

// worked examples, IC50 included
{"input-smiles": "CCS(=O)(=O)Nc1ccc(F)c(NC(=O)Nc2ncnc3[nH]nc(OC)c23)c1Cl", "unit-tag": "µM", "measured-number": 0.0479}
{"input-smiles": "CCCS(=O)(=O)Nc1ccc(F)c(NC(=O)Nc2ncnc3sc4c(c23)CCC4)c1F", "unit-tag": "µM", "measured-number": 0.176}
{"input-smiles": "CCCS(=O)(=O)Nc1ccc(Cl)c(NC(=O)Nc2ncnc3oc(C)c(C)c23)c1F", "unit-tag": "µM", "measured-number": 0.522}

// moving on: another record for IC50
Prompt: GET /values?readout=IC50&item= CCS(=O)(=O)Nc1ccc(F)c(NC(=O)Nc2ncnc3[nH]nc(OC)c23)c1F
Completion: 0.0135
